Items are presented alongside their recorded Total Impurities.
# ASSAY_PROCEDURE: Long-term (6 month) chemical stability, total impurities by HPLC
# Format: physicochemical
# CONDITION_PARAMETERS: 25 ± 2° C./60 ± 5% RH; Initial
Where a SMILES comes first, the peptide text is derived from it. [ ]: non-standard residue; d: D form. αMeP = C[C@@]1(C(=O)O)CCCN1

COMPOUND: C[C@@]1(C(=O)N[C@@H](CCC(=O)O)C(=O)O)CCCN1C(=O)CN [amorphous trofinetide (Batch 3), glycyl-L-2-methylprolyl-L-glutamic acid] (H-Gly-[αMeP]-Glu-OH)
Total Impurities, %: 0.2

COMPOUND: C[C@@]1(C(=O)N[C@@H](CCC(=O)O)C(=O)O)CCCN1C(=O)CN [amorphous trofinetide (Batch 2), glycyl-L-2-methylprolyl-L-glutamic acid] (H-Gly-[αMeP]-Glu-OH)
Total Impurities, %: 0.2

COMPOUND: C[C@@]1(C(=O)N[C@@H](CCC(=O)O)C(=O)O)CCCN1C(=O)CN [amorphous trofinetide (Batch 1), glycyl-L-2-methylprolyl-L-glutamic acid] (H-Gly-[αMeP]-Glu-OH)
Total Impurities, %: 0.3

* * *

# ASSAY_PROCEDURE: Long-term (6 month) chemical stability, total impurities by HPLC
# Format: physicochemical
# CONDITION_PARAMETERS: 25 ± 2° C./60 ± 5% RH; 6 months
Where a SMILES comes first, the peptide text is derived from it. [ ]: non-standard residue; d: D form. αMeP = C[C@@]1(C(=O)O)CCCN1

MOLECULE: C[C@@]1(C(=O)N[C@@H](CCC(=O)O)C(=O)O)CCCN1C(=O)CN [amorphous trofinetide (Batch 1), glycyl-L-2-methylprolyl-L-glutamic acid] (H-Gly-[αMeP]-Glu-OH)
Total Impurities: 1.0%
--
MOLECULE: C[C@@]1(C(=O)N[C@@H](CCC(=O)O)C(=O)O)CCCN1C(=O)CN [amorphous trofinetide (Batch 2), glycyl-L-2-methylprolyl-L-glutamic acid] (H-Gly-[αMeP]-Glu-OH)
Total Impurities: 0.9%
--
MOLECULE: C[C@@]1(C(=O)N[C@@H](CCC(=O)O)C(=O)O)CCCN1C(=O)CN [amorphous trofinetide (Batch 3), glycyl-L-2-methylprolyl-L-glutamic acid] (H-Gly-[αMeP]-Glu-OH)
Total Impurities: 0.8%
--
MOLECULE: C[C@@]1(C(=O)N[C@@H](CCC(=O)O)C(=O)O)CCCN1C(=O)CN [Form A] (H-Gly-[αMeP]-Glu-OH)
Total Impurities: <PLOQ

* * *

Items are presented alongside their recorded Total Impurities.
# ASSAY_PROCEDURE: Long-term (6 month) chemical stability, total impurities by HPLC
# Assay type: physicochemical
# CONDITION_PARAMETERS: 25 ± 2° C./60 ± 5% RH; 3 months
Where a SMILES comes first, the peptide text is derived from it. [ ]: non-standard residue; d: D form. αMeP = C[C@@]1(C(=O)O)CCCN1
READOUT_KIND: Total Impurities (%)

COMPOUND: C[C@@]1(C(=O)N[C@@H](CCC(=O)O)C(=O)O)CCCN1C(=O)CN [Form A] (H-Gly-[αMeP]-Glu-OH)
READOUT_KIND: Total Impurities
MEASURED_RESULT: 0.03
//
COMPOUND: C[C@@]1(C(=O)N[C@@H](CCC(=O)O)C(=O)O)CCCN1C(=O)CN [amorphous trofinetide (Batch 2), glycyl-L-2-methylprolyl-L-glutamic acid] (H-Gly-[αMeP]-Glu-OH)
READOUT_KIND: Total Impurities
MEASURED_RESULT: 0.6
//
COMPOUND: C[C@@]1(C(=O)N[C@@H](CCC(=O)O)C(=O)O)CCCN1C(=O)CN [amorphous trofinetide (Batch 1), glycyl-L-2-methylprolyl-L-glutamic acid] (H-Gly-[αMeP]-Glu-OH)
READOUT_KIND: Total Impurities
MEASURED_RESULT: 0.8
//
COMPOUND: C[C@@]1(C(=O)N[C@@H](CCC(=O)O)C(=O)O)CCCN1C(=O)CN [amorphous trofinetide (Batch 3), glycyl-L-2-methylprolyl-L-glutamic acid] (H-Gly-[αMeP]-Glu-OH)
READOUT_KIND: Total Impurities
MEASURED_RESULT: 0.6
